B1: ZNF649 (parent)
chain: EHERAHRGEKPHGCSLCGKAFYKR

# Variants of: B1
# PROTOCOL_NOTES: protein stability index of a GFP-peptide fusion (GPS, HEK-293T) (PSI 1-6); higher = more stable;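 note: lentivirally expressed fusions sorted by FACS into six bins by GFP to DsRed ratio, PSI derived from sequencing read proportions per bin multiplied by bin number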
# PARTICULARS: c terminus: a fixed tail appended
MEASUREMENT_NAME: protein stability index
Just the number, please, no unit attached.

For the variant `C14K` , give its measured protein stability index value.
4.59

For the variant `C17R` , give its measured protein stability index value.
4.43

For the variant `F21C` , give its measured protein stability index value.
2.13

For the variant `S15M` , give its measured protein stability index value.
1.93

For the variant `E9C` , give its measured protein stability index value.
3.6
